Can you tell me inhibition at 10 µM for the items I'm about to list?
- targetOrSystem: muscarinic M2 receptor (Homo sapiens (Human), UniProt P08172)
- Sequence (P08172 whole entry): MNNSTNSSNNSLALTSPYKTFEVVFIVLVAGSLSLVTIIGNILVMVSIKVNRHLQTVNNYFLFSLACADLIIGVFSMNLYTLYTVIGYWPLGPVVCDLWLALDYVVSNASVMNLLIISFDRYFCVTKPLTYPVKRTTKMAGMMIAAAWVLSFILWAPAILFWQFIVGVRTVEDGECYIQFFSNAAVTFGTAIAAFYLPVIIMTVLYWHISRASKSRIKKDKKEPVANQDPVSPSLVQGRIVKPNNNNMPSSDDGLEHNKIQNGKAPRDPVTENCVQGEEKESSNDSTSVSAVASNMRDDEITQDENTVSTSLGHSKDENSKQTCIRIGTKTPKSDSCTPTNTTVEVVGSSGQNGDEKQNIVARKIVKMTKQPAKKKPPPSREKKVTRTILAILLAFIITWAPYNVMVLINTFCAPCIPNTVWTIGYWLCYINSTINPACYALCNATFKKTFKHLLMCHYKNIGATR
- measurementNotes: Safety pharmacological profiling: muscarinic M2 receptor ligand binding
- condition: compound at 10 μM, in duplicate; ligand binding to cell membranes; read-out: Muscarinic M2 percent inhibition
One number for each entry, in %.

compound	reading
COc1cc2nc3c(c(NC4CCNCC4)c2cc1OC)CCC3 [drawing 587]	62

Would you be so kind as to report inhibition at 10 µM for each listed record?
1. CCNc1c2c(nc3cc(OCCCN4CCCC4)c(OC)cc13)CCC2 [drawing 583]
2. COc1cc2nc3c(c(N[C@H]4CNC[C@@H](C)C4)c2cc1OC)CCC3 [drawing 588]

1: 62; 2: 75

Would you be so kind as to report inhibition at 10 µM for each listed record?
1. COc1cc2nc3c(c(N[C@@H]4CCCCNC4)c2cc1OC)CCC3 [drawing 589]
2. COc1cc2nc3c(c(NCC4CNC4)c2cc1OC)CCC3 [drawing 585]

[80, 65]

* * *

Can you tell me inhibition at 10 µM for the items I'm about to list?
- targetOrSystem: mu (μ) opiate (OP3) receptor (Homo sapiens (Human), UniProt P35372)
- measurementNotes: biochemical
- Format: binding
- condition: read-out: Mu Opiate percent inhibition
Numbers only, in %.

Recorded inhibition at 10 µM, per entry:
compound	resultUnit	inhibition at 10 µM
COc1cc2nc3c(c(N[C@@H]4CCCNC4)c2cc1OC)CCC3 [drawing 594]	%	44
COc1cc2nc3c(c(N[C@H]4CNC[C@@H](C)C4)c2cc1OC)CCC3 [drawing 596]	%	23
CCNc1c2c(nc3cc(OCCCN4CCCC4)c(OC)cc13)CCC2 [drawing 591]	%	92
COc1cc2nc3c(c(NCC4CNC4)c2cc1OC)CCC3 [drawing 593]	%	12
COc1cc2nc3c(c(N[C@@H]4CCCCNC4)c2cc1OC)CCC3 [drawing 597]	%	73

Would you be so kind as to report inhibition at 10 µM for each listed record?
1. COc1cc2nc3c(c(NC4CCNCC4)c2cc1OC)CCC3 [drawing 595]
2. COc1cc2c(NC(C)C)c3c(nc2cc1OCCCN1CCCC1)CCC3 [drawing 590]

48
92

* * *

- targetOrSystem: G9a (Homo sapiens (Human))
- Sequence (Q96KQ7 whole entry): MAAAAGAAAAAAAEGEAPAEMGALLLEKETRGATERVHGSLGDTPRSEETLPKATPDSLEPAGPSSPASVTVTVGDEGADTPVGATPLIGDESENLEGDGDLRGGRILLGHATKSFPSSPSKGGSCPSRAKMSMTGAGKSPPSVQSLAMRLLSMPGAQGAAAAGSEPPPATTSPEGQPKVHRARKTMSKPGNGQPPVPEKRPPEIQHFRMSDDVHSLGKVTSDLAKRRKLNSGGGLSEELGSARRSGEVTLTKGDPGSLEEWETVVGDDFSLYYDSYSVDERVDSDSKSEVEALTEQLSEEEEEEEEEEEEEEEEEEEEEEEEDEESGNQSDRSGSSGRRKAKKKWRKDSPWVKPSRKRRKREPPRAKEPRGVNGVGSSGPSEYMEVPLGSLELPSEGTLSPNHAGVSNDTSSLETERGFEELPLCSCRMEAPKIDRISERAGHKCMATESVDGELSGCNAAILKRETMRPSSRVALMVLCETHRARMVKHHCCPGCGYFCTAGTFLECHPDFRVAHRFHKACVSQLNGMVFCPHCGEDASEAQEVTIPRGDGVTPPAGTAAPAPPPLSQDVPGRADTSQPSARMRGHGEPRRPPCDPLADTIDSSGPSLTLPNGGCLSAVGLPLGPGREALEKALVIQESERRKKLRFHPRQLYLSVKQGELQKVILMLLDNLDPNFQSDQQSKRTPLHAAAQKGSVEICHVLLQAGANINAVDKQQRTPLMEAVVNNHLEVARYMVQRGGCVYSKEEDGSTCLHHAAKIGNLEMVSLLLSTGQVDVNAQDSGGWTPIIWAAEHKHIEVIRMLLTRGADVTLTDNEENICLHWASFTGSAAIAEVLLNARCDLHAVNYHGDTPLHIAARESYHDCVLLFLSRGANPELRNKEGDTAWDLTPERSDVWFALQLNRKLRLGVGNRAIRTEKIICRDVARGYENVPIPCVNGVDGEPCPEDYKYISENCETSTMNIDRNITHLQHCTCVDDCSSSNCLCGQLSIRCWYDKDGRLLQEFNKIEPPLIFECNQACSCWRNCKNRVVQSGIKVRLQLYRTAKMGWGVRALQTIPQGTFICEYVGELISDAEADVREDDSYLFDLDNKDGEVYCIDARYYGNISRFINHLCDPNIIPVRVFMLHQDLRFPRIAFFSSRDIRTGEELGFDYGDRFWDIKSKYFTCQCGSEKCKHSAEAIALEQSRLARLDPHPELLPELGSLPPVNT
- measurementNotes: G9a AlphaLISA enzymatic activity assay
- Assay type: biochemical
- condition: G9a AlphaLISA; negative log of the IC50 value in molar
Can you tell me pIC50 for the items I'm about to list?
Give bare numbers.

Recorded pIC50, per entry:
compound	reading
COc1cc2nc3c(c(N[C@@H]4CCCNCC4)c2cc1OC)CCC3	7.5
COCCN1CCC(Nc2c3c(nc4cc(OC)c(OC)cc24)CCC3)CC1	6.7
COc1cc2nc3c(c(NCC4CCNCC4)c2cc1OC)CCC3	7
COc1cc2nc3c(c(N[C@@H]4CCCCNC4)c2nc1OC)CCC3	7.1

Would you be so kind as to report pIC50 for each listed record?
1. CCOc1cc2nc3c(c(N[C@@H]4CCCNC4)c2cc1OC)CCC3
2. COc1cc2nc3c(c(N[C@@H]4CCCCN(C)C4)c2nc1OC)CCC3

[7, 6.6]

Would you be so kind as to report pIC50 for each listed record?
1. COc1cc2nc3c(c(N[C@@H]4CNC[C@H](C)C4)c2cc1OC)CCC3
2. COc1cc2nc3c(c(NC4CCN(C(N)=O)CC4)c2cc1OC)CCC3
3. COc1cc2nc3c(c(N[C@H]4CNC[C@H](C)C4)c2cc1OC)CCC3
4. COc1cc2nc3c(c(NC4CCN(C(C)C)CC4)c2nc1OC)CCC3
5. COc1cc2nc3c(c(N[C@H]4CNCC(C)(C)C4)c2cc1OC)CCC3
6. COc1cc2nc3c(c(N[C@@H]4CCCNC4)c2nc1OC)CCC3
7. COc1cc2nc3c(c(NCC4CCNC4)c2cc1OC)CCC3 (centres unmarked)

1. 6.9
2. 6.12
3. 7.9
4. 6.8
5. 7.2
6. 7.2
7. 7.4

Would you be so kind as to report pIC50 for each listed record?
1. COc1cc2nc3c(c(NC[C@@H]4C[C@H](F)CN4)c2cc1OC)CCC3
2. COc1cc2nc3c(c(N[C@@H]4CCCN(C)CC4)c2nc1OC)CCC3

1. 6.3
2. 7

Would you be so kind as to report pIC50 for each listed record?
1. COc1cc2nc3c(c(N[C@H]4CNC[C@H](F)C4)c2cc1OC)CCC3
2. CCN1CCC[C@@H](Nc2c3c(nc4cc(OC)c(OC)cc24)CCC3)CC1

1. 6.9
2. 7.6

Would you be so kind as to report pIC50 for each listed record?
1. COc1cc2nc3c(c(N[C@@H]4CCCN(C)C4)c2nc1OC)CCC3
2. COc1cc2nc3c(c(NC[C@H]4CCCNC4)c2cc1OC)CCC3
3. COc1cc2c(NC3CCN(C(C)C)CC3)c3c(nc2cc1C1CC1)CCC3
4. COc1cc2nc3c(c(NCCNC(C)C)c2cc1OC)CCC3
5. COc1cc2nc3c(c(N[C@H]4CNC[C@@H](F)C4)c2cc1OC)CCC3
6. COc1cc2nc3c(c(NCC4CCCN4)c2cc1OC)CCC3 (centres unmarked)
7. COc1cc2nc3c(c(N[C@H]4CNC[C@@H](C)C4)c2cc1OC)CCC3

6.2
7.1
6.72
7.5
6.5
7.3
8

Would you be so kind as to report pIC50 for each listed record?
1. COc1cc2nc3c(c(NC4CCN(C5CCCC5)CC4)c2cc1OC)CCC3
2. COc1cc2nc3c(c(N[C@@H]4CCCN(C)CC4)c2cc1OC)CCC3
3. COc1cc2nc3c(c(NC4CCN(c5ccncc5F)CC4)c2cc1OC)CCC3
4. COc1cc2nc3c(c(NC[C@@H]4CCCNC4)c2cc1OC)CCC3
5. COc1cc2nc3c(c(NC4CCN(c5cccc(F)c5F)CC4)c2cc1OC)CCC3

1. 7.4
2. 7.5
3. 6.05
4. 6.9
5. 5.3
